B1: library; a variant is named by its letters at N, in order (parent)
chain: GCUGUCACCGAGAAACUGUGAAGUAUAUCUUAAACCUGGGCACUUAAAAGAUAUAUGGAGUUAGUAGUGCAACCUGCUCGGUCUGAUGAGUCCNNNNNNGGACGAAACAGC

variants of: B1; assay: normalized RNA/DNA level with ligand (relative to sTRSVctl = 100) (log10 (% of sTRSVctl)); HEK293T; ligand: cyclic di-GMP (c-di-GMP-II aptamer); ligand concentration (+) RNA-Seq: 1 mM; higher = less ribozyme self-cleavage, higher mRNA level; conditions: reporter: mCherry (pCS4076), ligand present: yes
Reported Metric: normalized RNA/DNA level with ligand (log10)
Write the value as a bare number.

Below are worked cases with known answers.
Ask: Let me know recorded normalized RNA/DNA level with ligand (log10) for CAAAGU , thanks.
Reply: 1.79

Ask: Name the recorded normalized RNA/DNA level with ligand (log10) of the variant listed here: UAACAC
Reply: 1.83

Ask: Supply measured normalized RNA/DNA level with ligand (log10) of AUCGCG in your reply.
Reply: 1.84

New cases:
Ask: For the variant GCUGUG , give its measured normalized RNA/DNA level with ligand (log10) value.
Reply: 1.79

Ask: Report normalized RNA/DNA level with ligand (log10) for GCACUC
Reply: 1.69

Ask: Hello, please tell me recorded normalized RNA/DNA level with ligand (log10) for this one: AGGGAC
Reply: 1.7

Ask: Specify measured normalized RNA/DNA level with ligand (log10) for UGGGGA .
Reply: 1.73

Ask: Given CAGGUU , respond with its normalized RNA/DNA level with ligand (log10).
Reply: 1.88

Ask: Determine from records and report normalized RNA/DNA level with ligand (log10) for CAGUAG
Reply: 1.83

Ask: Give the reported value of normalized RNA/DNA level with ligand (log10) for this record: CGAUGA
Reply: 1.62

Ask: State its normalized RNA/DNA level with ligand (log10) for this variant: ACUUCG
Reply: 1.79

This collection of values is drawn from the supplement of paper PMC6757056.
